FYI, the data here is from patent US12590062B2.

assay_system: PD-1/PD-L1 (Homo sapiens)
Sequence (Q9NZQ7 19-238 limits assumed): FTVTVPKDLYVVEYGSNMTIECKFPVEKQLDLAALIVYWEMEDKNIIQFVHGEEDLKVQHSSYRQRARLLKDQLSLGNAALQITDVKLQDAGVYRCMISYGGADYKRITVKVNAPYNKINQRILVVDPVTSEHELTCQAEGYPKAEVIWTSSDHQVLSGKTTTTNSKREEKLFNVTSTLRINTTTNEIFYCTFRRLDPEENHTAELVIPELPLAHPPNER
experiment: PD-1/PD-L1 biochemical protein-protein interaction assay (ALPHA)
study_conditions: 0.3 nM His tagged PD-L1, 2.5 nM biotinylated Fc-PD-1, 60 minutes at 25° C., read-out: IC50 PD-L1-PD-1 Alpha IC50-mono PD-L1-fcP-D1
measured_metric: IC50 (nM)

{"compound": "Cc1c(COc2nc(OCC(N)=O)c(CNC[C@@H](O)CC(=O)O)cc2Br)cccc1-c1cccc(COc2nc(OCC(N)=O)c(CNC[C@@H](O)CC(=O)O)cc2Br)c1C [Example 155]", "measured_metric": "IC50", "observed_measurement": 0.2}
{"compound": "C[C@@](CO)(NCc1cc(Cl)c(O[C@H]2CCc3c(-c4cccc(-c5ccc6c(c5)CC(N)C6)c4Cl)cccc32)nc1OCc1cncc(C#N)c1)C(=O)O (some centres unmarked) [Example 795]", "measured_metric": "IC50", "observed_measurement": 0.064}
{"compound": "COc1nc(O[C@H]2CCc3c(-c4cccc(-c5cc(C)c(CNC[C@@H]6CCC(=O)N6)c(OC)n5)c4Cl)cccc32)c(Cl)cc1CN1CC[C@@H](C(=O)O)C1 [Example 490]", "measured_metric": "IC50", "observed_measurement": 0.064}
{"compound": "Cc1c(COc2nc(OCc3cncs3)c(CNC[C@@H](O)CC(=O)O)cc2Br)cccc1-c1cccc(COc2nc(OCc3cncs3)c(CNC[C@@H](O)CC(=O)O)cc2Br)c1C [Example 138]", "measured_metric": "IC50", "observed_measurement": 1}
{"compound": "Cc1c(COc2nc(OCc3cncc(C#N)c3)c(CNC[C@@H](O)CC(=O)O)cc2Br)cccc1-c1cccc(COc2nc(OCc3cncc(C#N)c3)c(CNC[C@@H](O)CC(=O)O)cc2Br)c1C [Example 240]", "measured_metric": "IC50", "observed_measurement": 0.4}
